Assay: NCI Yeast Anticancer Drug Screen. Data for the sgs1 mgt1 strain (AID 161);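 note: 0% = growth of cultures given vehicle only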
Settings: S. cerevisiae sgs1 mgt1 strain, at 50.0 µM
This is part of a sample that, as a whole, favours compounds with a hit. Of some 79,000 tested, about 15% had one in any assay. Activity calls are given as the source filed them. Cut-off read from the data, not from the text of the source: active = growth inhibition above about 70%; inactive = the rest.
Write down the outcome that applies. Available outcomes: active, inactive

Record excerpt, results attached:
compound: FC(F)(F)c1ccccc1NC(=S)SCc1ccco1
class.assignment: active

compound: CCCCCCC(/C=C/c1c(Cl)cccc1Cl)=N\O
class.assignment: active

compound: CC1C[C@]2(C)C(=S)Nc3ccccc3[C@@H]2Nc2ccccc21 (stereo partly specified)
class.assignment: inactive

compound: CCc1cc2c(cc1O)CC[C@@H]1[C@@H]2CC[C@]2(C)[C@@H](O)CC[C@@H]12
class.assignment: active

stdin: Assay result, entry CC12C(=O)OC(=O)C1C1c3ccccc3C2c2ccccc21 (stereo unspecified) — outcome?
stdout: active

stdin: Assay result, entry N#Cc1c2c(c(N=[N+]=[N-])n3c1nc1ccccc13)CCCC2 — outcome?
stdout: active

###

Assay: NCI Yeast Anticancer Drug Screen. Data for the mlh1 rad18 strain (AID 175)
Details: S. cerevisiae mlh1 rad18 strain growth inhibition; at 50.0 µM (retest, dose inferred, filed as 5.0); hits give high values
Compounds without any hit were thinned out: in the full panel of roughly 79,000, 15% have a hit. Calls of active or inactive are those of the source. Cut-off read from the data, not from the text of the source: active = growth inhibition above about 70%; inactive = the rest.
measured.metric: growth inhibition

Reference set (5 entries):
molecule: CC(=O)OC1CCC2(C)C(CCC3C4=CCC(C5COC(=O)C5)C4(C)CCC32)C1 (configuration not stated)
growth inhibition: 90% (active)
//
molecule: N#Cc1cc([N+](=O)[O-])ccc1NC(=O)/C(=N/N)C(C(=O)c1ccc(Cl)c(Cl)c1)C1OC(=O)c2ccccc21 (configuration not stated)
growth inhibition: 5% (inactive)
//
molecule: COc1ccc2c(c1)CN([C@@H](C)[C@H]1CC[C@H]3[C@@H]4CC[C@H]5C[C@@H](O)CC[C@]5(C)[C@H]4CC[C@]13C)CO2
growth inhibition: 99% (active)
//
molecule: NC(=O)N/N=C/C(O)C(O)C(O)C(O)CO (configuration not stated)
growth inhibition: 20% (inactive)
//
molecule: CCc1cccc(CC)c1Nc1nc2c(s1)C(=O)c1ccccc1C2=O
growth inhibition: 98% (active)

get_value(item= CC(C)=C1C=C2CCC3C(C)(C(=O)O)CCCC3(C)C2CC1 (configuration not stated) (tested in a mixture with another compound) , readout=growth inhibition) returns 76% (active)

get_value(item= O=[N+]([O-])c1ccc(NC(=S)N/N=C(\c2ccccc2)c2ccccn2)cc1 , readout=growth inhibition) returns 89% (active)

###

Experiment: NCI Yeast Anticancer Drug Screen. Data for the mlh1 rad18 strain (AID 175)
Settings: S. cerevisiae mlh1 rad18 strain growth inhibition; at 5.0 µM (retest, dose inferred, filed as 0.5); hits give high values
Experimental: Growth inhibition of yeast strains with defined genetic alterations is measured as a screen for potential anti-cancer activity. Selected strains with alterations in DNA damage repair or cell cycle control were exposed to compounds and growth inhibition was measured relative to vehicle treated controls. The strain used in this assay is mlh1 rad18
This is part of a sample that, as a whole, favours compounds with a hit. Of some 79,000 tested, about 15% had one in any assay.
// values below are reported growth inhibition
Quick reminder: number only, in %, skip the unit.

compound: CC(=O)Oc1ccc2c(c1)CCC1C2CCC2(C)C1CCC21CO1 (centres undefined)
uom: %
value: -6
//
compound: c1ccc(CCNCc2ccco2)nc1
uom: %
value: -7
//
compound: COc1ccc2c(c1)CC[C@@H]1[C@@H]2CC[C@]2(C)/C(=N/OCCN3CCCC3)CC[C@@H]12
uom: %
value: 39

Next, consider the following compound.
get_value(item= COc1cc(Nc2ccc(Oc3ccc(O)cc3)cc2)c2ncccc2c1 , readout=growth inhibition) returns 14

###

Experiment: NCI Yeast Anticancer Drug Screen. Data for the mlh1 rad18 strain (AID 175)
Settings: S. cerevisiae mlh1 rad18 strain growth inhibition; at 50.0 µM; hits give high values
The panel holds about 79,000 compounds, 15% with a hit somewhere; the sample as a whole holds those more often.
// values below are reported growth inhibition
Quick reminder: number only, in %, skip the unit.

compound: CSc1nc(=Nc2ccccc2)sn1-c1ccccc1
growth inhibition (%): 99

get_value(item= COC(=O)c1cc(-c2ccc([N+](=O)[O-])cc2)c2c(=O)n(-c3ccccc3)[nH]c2n1 , readout=growth inhibition) returns 92.2

get_value(item= CC1CC(N)=NC1C(=O)NCCC#N (configuration not stated) , readout=growth inhibition) returns 66.7

get_value(item= O=C(CSc1nnc(Cc2ccccc2)o1)Nc1ccc(Cl)cc1[N+](=O)[O-] , readout=growth inhibition) returns 83.8

get_value(item= O=C(CSc1nnc(Cc2ccccc2)o1)Nc1cccc(Cl)c1 , readout=growth inhibition) returns 78.8

get_value(item= O=C(CC1Sc2ccccc2NC1=O)Nc1ccc([N+](=O)[O-])cc1[N+](=O)[O-] (configuration not stated) , readout=growth inhibition) returns 86.9

get_value(item= Clc1ccc2ns[s+]c2c1 , readout=growth inhibition) returns -27.7

get_value(item= CC(C)=CCC/C(C)=C/COC(=O)Nc1ccccc1 , readout=growth inhibition) returns 10.9

get_value(item= CN(C(=O)C(Cl)Cl)c1ccc(-c2csc(-c3ccccc3)n2)cc1 , readout=growth inhibition) returns 22.4

get_value(item= Nc1ncnc2c1c(-c1ccccc1)cn2-c1ccc(Br)cc1 , readout=growth inhibition) returns 58.9

get_value(item= O=C(CCl)OCC(=O)c1ccc(-c2ccccc2)cc1 , readout=growth inhibition) returns 32.4

get_value(item= O=C(NCCCCC(NC(=O)OCc1ccccc1)C(=O)Nc1ccc(Nc2ccc(NC(=O)C(CCCCNC(=O)OCc3ccccc3)NC(=O)OCc3ccccc3)cc2)cc1)OCc1ccccc1 (configuration not stated) , readout=growth inhibition) returns 98.4

###

Test: NCI Yeast Anticancer Drug Screen. Data for the mec2-1 strain (AID 157)
Settings: S. cerevisiae mec2-1 strain, at 50.0 µM
About 79,000 compounds went through this panel and 15% of them were active in at least one assay; those are over-represented in the sample as a whole. Activity calls are given as the source filed them. Rule as the data show it: active = growth inhibition above about 70%; inactive = the rest.
Write down the outcome that applies. Available outcomes: active, inactive

molecule: COC(=O)c1nc(=S)[nH]c(C(=O)OC)c1C(=O)c1c(C)[nH]c2ccccc12
class.assignment: inactive
--
molecule: O=C1/C(=C/c2ccc(Cl)cc2)CSC/C1=C\c1ccc(Cl)cc1
class.assignment: inactive
--
molecule: CCCCN(CCC(=O)O)c1ccc(/C=C\c2ccnc3ccccc23)cc1
class.assignment: active

stdin: Assay result, entry O=C(CCCN1CCc2[nH]c3cc(F)ccc3c2C1)c1ccc(F)cc1 — outcome?
stdout: inactive

stdin: Assay result, entry CCCCCCCCCCCCCCCCN[Si](NCCCCCCCCCCCCCCCC)(NCCCCCCCCCCCCCCCC)NCCCCCCCCCCCCCCCC — outcome?
stdout: active

stdin: Assay result, entry CC(C)(C)C(=O)OC(N)/C=C/c1ccccc1 (configuration not stated) — outcome?
stdout: inactive

stdin: Assay result, entry CCCCCCCCCCCCCCC(O)C[N+](C)(CCO)CCO (configuration not stated) — outcome?
stdout: active

###

// values below are reported growth inhibition
Assay: NCI Yeast Anticancer Drug Screen. Data for the rad50 strain (AID 155);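 note: 0% = growth of vehicle-only cultures of the same strain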
Conditions: S. cerevisiae rad50 strain growth inhibition; at 50.0 µM (retest, dose inferred, filed as 5.0); hits give high values
Compounds without any hit were thinned out: in the full panel of roughly 79,000, 15% have a hit.
Quick reminder: number only, in %, skip the unit.

Reference set (5 entries):
molecule: CC(C(=O)NN)C(O)C(C)(C)O (stereo not given)
growth inhibition, %: -5
//
molecule: CC1CN(C(=S)NNC(C)c2cc3ccccc3cn2)CC(C)O1 (stereo not given)
growth inhibition, %: 96
//
molecule: COc1ccc(C2=NN(c3ccccc3)C[N+](c3ccc(OC)cc3)=N2)cc1
growth inhibition, %: 72
//
molecule: CC(C)=CN(C)C (tested in a mixture with another compound)
growth inhibition, %: 87
//
molecule: Nc1ccccc1Sc1ccc(C(F)(F)F)cc1[N+](=O)[O-]
growth inhibition, %: 23

get_value(item= O=Cc1[nH]c(=S)[nH]c(=O)c1CCCc1ccccc1 , readout=growth inhibition) returns 79

get_value(item= CC1Cc2ccc3c(c2C(c2ccc4c(c2)OCO4)C1C)OCO3 (stereo not given) , readout=growth inhibition) returns -16

get_value(item= CC(=O)NC(C)(C)C1CCC(C)=C(c2ccccc2)C1 (stereo not given) , readout=growth inhibition) returns 2

###

Assay: NCI Yeast Anticancer Drug Screen. Data for the cln2 rad14 strain (AID 165);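 note: 0% = growth equal to vehicle treated cultures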
Settings: S. cerevisiae cln2 rad14 strain, at 50.0 µM, hits give high values
Procedure: Growth inhibition of yeast strains with defined genetic alterations is measured as a screen for potential anti-cancer activity. Selected strains with alterations in DNA damage repair or cell cycle control were exposed to compounds and growth inhibition was measured relative to vehicle treated controls. The strain used in this assay is cln2 rad14
About 79,000 compounds went through this panel and 15% of them were active in at least one assay; those are over-represented in the sample as a whole.
// values below are reported growth inhibition
Quick reminder: number only, in %, skip the unit.

Reference set (3 entries):
molecule: COc1ccccc1C1(c2ccccc2OC)OC(=O)c2ccccc21
measured.metric: growth inhibition
uom: %
value: 69

molecule: C[C@]12CCC(=O)C=C1CC[C@@H]1[C@@H]2[C@@H](O)C[C@@]2(C)[C@H]1CC[C@]2(O)C(=O)COC(=O)CCC1CCCC1
measured.metric: growth inhibition
uom: %
value: 82.7

molecule: Nc1nc(-c2ccccc2)c(N=Nc2c(Cl)cccc2Cl)s1
measured.metric: growth inhibition
uom: %
value: 87.7

get_value(item= COc1cccc(C2c3cc4c(cc3OC(NNc3ccccc3)C2C)OCO4)c1OC (centres undefined) , readout=growth inhibition) returns 27.1

get_value(item= O=c1c(Cl)c(Cl)c(=O)c2sc3cc(Cl)ccc3[nH]c1=2 , readout=growth inhibition) returns 95
